- target_or_system: T1, HLA-A*0201/β2-microglobulin/NY-ESO peptide complex (human, biotinylated with E. coli biotin ligase at the added recognition sequence (biotinylated form used in the ELISA))
- T1 construct: also called HLA/NY-ESO; HLA-A2/NY-ESO
- protocol_notes: SPR (Biacore T200), scFv captured by anti-His antibody, HLA/NY-ESO as analyte, single cycle kinetics
Below, each entry is listed alongside its reported Kd.
observable: Kd (nM)

binder	reported_value
NYA-2035 (scFv) scFv: GEVQLVESGGGVVQPGRSLTPSCSASGFSIRSYDIHWVRLAPGKGLEWVATISYDGSQKYFADSVKGRFTIFRDESENMVYLQMSGLRVEDTAVYHCARGSSGHYEAFDIWGQGTMVTVSSGGGGSGGGGSGGGGSQSVLTQPPSVSAAPGQKVTISCSGSSSNIGNWKVSWYQQLPGTAPKLLIYDNNKRPSGIPDRFSGSKSGTSATLGITGLQTGDEADYYCGTWDSSLSAPWVFGGGTKVTVLGAAAGAGGDYKDDDDKGAAAHHHHHH	3.2
NYA-1163 (scFv) scFv: GEVQLVESGGGVVQPGRSLTPSCSASGFSIRSYDIHWVRLAPGKGLEWVATISYDGSQKYFADSVKGRFTIFRDESENMVYLQMSGLRVEDTAVYHCARGSSGHYEAFDIWGQGTMVTVSSGGGGSGGGGSGGGGSQSVLTQPPSVSAAPGQKVTISCSGSSSNIGNNYVSWYQQLPGTAPKLLIYDNNKRPSGIPDRFSGSKSGTSATLGITGLQTGDEADYYCGTWDSSLSAPWVFGGGTKVTVLGAAAGAGGDYKDDDDKGAAAHHHHHH	13
